- Test system: SF-295 CNS
- PROTOCOL SUMMARY: NCI tumour cell line growth inhibition, 48 h

>  <COMPOUND>
COc1cc(C2SCC(=O)N2c2ncc(C)s2)cc(OC)c1OC (stereo not given)

>  <GI50>
9.23 µM

$$$$
>  <COMPOUND>
c1ccc(CN2COc3c(ccc4c3OCN(Cc3ccccc3)C4)C2)cc1

>  <GI50>
0.554 µM

$$$$
>  <COMPOUND>
[N-]=[N+]=NCCCCCC(=O)OC(C(=O)c1ccccc1)c1cccc(OCC(=O)NCCOCCOCCNC(=O)CCCC[C@@H]2SC[C@@H]3NC(=O)N[C@@H]32)c1 (stereo not given in full)

>  <GI50>
> 100 µM

$$$$
>  <COMPOUND>
N=c1ccn(O)cc1/C=C1/C(=O)Nc2ccccc21

>  <GI50>
> 100 µM

$$$$
>  <COMPOUND>
O=C(Cc1ccc(F)c(F)c1)Nc1cc(C2(C(F)(F)F)CC2)nn1Cc1ccccc1

>  <GI50>
3.77 µM

$$$$

###

- Test system: 786-0 renal
- PROTOCOL SUMMARY: NCI tumour cell line growth inhibition, 48 h
Parameter TGI: see the listing below.

>  <COMPOUND>
COc1cc(/C=N/n2c(-c3ccccc3)nn(C(C)=O)c2=O)cc(OC)c1OC

>  <TGI>
> 53.1 µM

$$$$
>  <COMPOUND>
Cc1cccc2c1c(=O)c1c(O)c3c(cc1n2C)OC(C)(C)C=C3

>  <TGI>
> 10 µM

$$$$
>  <COMPOUND>
Cn1c2c(c3ccc([N+](=O)[O-])cc3c1=O)C(=O)c1ccccc1-2

>  <TGI>
> 100 µM

$$$$
>  <COMPOUND>
CC(C)=CCC[C@](C)(O)[C@H]1CC[C@]2(C)[C@@H]1CC[C@@H]1[C@@]3(C)CC/C(=N/O)C(C)(C)[C@@H]3CC[C@]12C

>  <TGI>
69.3 µM

$$$$
>  <COMPOUND>
CC(Nc1ccc(S(=O)(=O)N=C(N)N)cc1)c1c2ccccc2nc2ccccc12 (stereo not given)

>  <TGI>
> 100 µM

$$$$

###

- Test system: 786-0 renal
- PROTOCOL SUMMARY: NCI tumour cell line growth inhibition, 48 h
Parameter TGI: see the listing below.

>  <MOLECULE>
Cc1cc(N2CCOCC2)nc(N[C@@H]2CCC[C@H](Nc3ccnc4cc(Cl)ccc34)C2)n1

>  <TGI>
3.27 µM

$$$$
>  <MOLECULE>
Oc1ccc(C(c2ccc(O)cc2)c2ccc(O)cc2)cc1

>  <TGI>
34.8 µM

$$$$
>  <MOLECULE>
CC(=O)C1C(c2ccc(N(C)C)cc2)c2cc3c(cc2OC1(C)O)OCO3 (centres undefined)

>  <TGI>
> 100 µM

$$$$
>  <MOLECULE>
COC(=O)C1(C#N)C(C)(C)N=C(c2ccccc2)C12CCCCC2 (centres undefined)

>  <TGI>
> 100 µM

$$$$
>  <MOLECULE>
CC(=O)OCC1OC(Nn2c(=O)[nH]c3ccccc3c2=O)C(OC(C)=O)C(OC(C)=O)C1OC(C)=O (centres undefined)

>  <TGI>
> 100 µM

$$$$
>  <MOLECULE>
COc1ccc(Cc2nnc(Nc3ccc(Br)cc3)[nH]c2=O)cc1OC

>  <TGI>
> 100 µM

$$$$
>  <MOLECULE>
COC(=O)C(Cc1c[nH]c2ccccc12)NC(=O)c1ccc(-c2ccc(Cl)cc2Cl)o1 (centres undefined)

>  <TGI>
> 100 µM

$$$$
>  <MOLECULE>
OC(c1ccc(C(F)(F)F)cc1)C(F)(F)c1nc2ccccc2o1 (centres undefined)

>  <TGI>
> 100 µM

$$$$
>  <MOLECULE>
CC(=O)Nc1ccc2c3c(cc(O)c2c1)N(C(=O)CCCCCCC(=O)N1CC(CCl)c2c1cc(O)c1cc(NC(C)=O)ccc21)CC3CCl (centres undefined)

>  <TGI>
0.0204 µM

$$$$
